- tested on: Recombinant ROCK2 (amino acids 1-552) (Homo sapiens (Human))
- Sequence (O75116 1-552): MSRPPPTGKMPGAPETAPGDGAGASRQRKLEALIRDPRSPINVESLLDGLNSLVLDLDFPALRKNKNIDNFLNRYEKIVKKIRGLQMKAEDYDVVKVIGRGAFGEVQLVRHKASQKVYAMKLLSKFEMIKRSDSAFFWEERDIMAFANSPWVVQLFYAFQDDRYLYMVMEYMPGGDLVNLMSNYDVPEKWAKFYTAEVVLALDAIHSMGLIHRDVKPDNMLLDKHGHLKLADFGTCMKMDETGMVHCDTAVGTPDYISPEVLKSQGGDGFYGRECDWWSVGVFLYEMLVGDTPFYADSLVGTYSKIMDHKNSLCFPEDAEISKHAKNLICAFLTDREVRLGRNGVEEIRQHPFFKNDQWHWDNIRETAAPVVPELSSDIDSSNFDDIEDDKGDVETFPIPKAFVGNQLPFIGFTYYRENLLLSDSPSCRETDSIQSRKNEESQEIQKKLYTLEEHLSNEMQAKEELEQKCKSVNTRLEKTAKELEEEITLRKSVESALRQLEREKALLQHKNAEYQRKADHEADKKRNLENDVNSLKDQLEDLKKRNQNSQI
- assay overview: Z′-Lyte kinase assay, ROCK2
- Format: biochemical
- measurement conditions: 1 μM compound; read-out: ROCK2 % inh. @ [conc]
Field: inhibition at 1 µM. Provide a value for each of the molecules that follow.
Answer format: numeric, % implied, no suffix.

input: Suppose we examine the molecule c1cc(Nc2ccc(-c3cn[nH]c3)cc2)nc(N2CCNCC2)n1 ; what inhibition at 1 µM value has been reported?
output: 63.1

input: What does the record list as inhibition at 1 µM for Fc1cnc(N2CCC3NCC3C2)nc1Nc1ccc2[nH]ncc2c1 (stereo not shown) ?
output: 99.1

input: Which inhibition at 1 µM value belongs to Cc1cnc(N2CCNCC2)nc1Nc1ccc2[nH]ncc2c1 ?
output: 61

input: Entry under review: Cc1nc(N2CCNCC(C)C2)nc(Nc2ccc3[nH]ncc3c2)c1C (stereo not shown) . Reported inhibition at 1 µM?
output: 45

input: Would you mind telling me what inhibition at 1 µM value was observed for COc1cnc(N2CCNC(C)CC2)nc1Nc1ccc2[nH]ncc2c1 (stereo not shown) ?
output: 74.5

input: Reported inhibition at 1 µM, molecule Fc1cnc(N2CC3(CCNCC3)c3ccccc32)nc1Nc1ccc2[nH]ncc2c1 : ____
output: 0

input: Look at this molecule and give its reported inhibition at 1 µM. CC1CNCCN(c2ncc(F)c(Nc3ccc4[nH]ncc4c3)n2)C1 (stereo not shown)
output: 99.5

input: Which inhibition at 1 µM reading was recorded for the molecule Fc1cnc(N2CC3CCC2CN3)nc1Nc1ccc2[nH]ncc2c1 (stereo not shown) ?
output: 98.5

input: Please look up its inhibition at 1 µM: CCC1CCN(c2ncc(Cl)c(Nc3ccc4[nH]ncc4c3)n2)CCN1 (stereo not shown)
output: 44.9

input: Any idea what inhibition at 1 µM was measured for CCC1CCN(c2ncc(F)c(Nc3ccc4[nH]ncc4c3)n2)CCN1 (stereo not shown) ?
output: 71.8

input: Please report the recorded inhibition at 1 µM for Cc1cnc(N2CCNC(C)CC2)nc1Nc1ccc2[nH]ncc2c1 (stereo not shown) .
output: 47.5

input: What value of inhibition at 1 µM has been recorded for this entry: Cc1cnc(N2CCCNCC2C)nc1Nc1ccc2[nH]ncc2c1 (stereo not shown)
output: 82.9

input: // returns reported inhibition at 1 µM for input Cc1cc(Nc2ccc3[nH]ncc3c2)nc(N2CC3CNC(C3)C2)n1 (stereo not shown)
output: 101

input: Give its inhibition at 1 µM value. Item: Cc1nc(N2C3CCC2CNC3)nc(Nc2ccc3[nH]ncc3c2)c1C
output: 102

input: Please give the measured inhibition at 1 µM for this molecule: COc1cnc(N2CCNC(C)C2)nc1Nc1ccc2[nH]ncc2c1 (stereo not shown)
output: 78.1

input: So what does the record say about inhibition at 1 µM for CCC1CN(c2nc(C)c(C)c(Nc3ccc4[nH]ncc4c3)n2)CCN1 (stereo not shown) ?
output: 33.3

input: Requested field: inhibition at 1 µM. Item: CCC1CN(c2ncc(F)c(Nc3ccc4[nH]ncc4c3)n2)CCN1 (stereo not shown)
output: 71.4

input: Which value of inhibition at 1 µM has been reported for Cc1cnc(N2CCCNCC2)nc1Nc1ccc(-c2cn[nH]c2)cc1 in the records?
output: 74

input: What measured inhibition at 1 µM goes with c1ccc2c(c1)N(c1nccc(Nc3ccc4[nH]ncc4c3)n1)CC21CCNCC1 ?
output: 7.6
